assay: Oral bioavailability in rat; format: ADME, organism-based; conditions: in vivo

| Compound | bioavailability |
| --- | --- |
| CC(C)=CCC/C(C)=C/CNCCNC1C2CC3CC(C2)CC1C3.Cl.Cl (stereo unspecified) | 12% |

* * *

Listed below: MIC values for each entry.
tested on: Mycobacterium tuberculosis; assay: Antituberculosis activity against Mycobacterium tuberculosis H37Rv by microbroth dilution assay; format: functional

| Compound | MIC [µM] |
| --- | --- |
| CCC(/C=C(\C)CCC=C(C)C)NCCNC1C2CC3CC(C2)CC1C3 (configuration not stated) | 1.2 |
| CC(C)=CCC/C(C)=C/CNCCNC1C2CC3CC1CC(O)(C3)C2 (configuration not stated) | 8.6 |
| CC(C)=CCC/C(C)=C/C(C)NCCNC1C2CC3CC(C2)CC1C3 (configuration not stated) | 1.2 |
| COC12CC3CC(CC(C3)C1NCCNC/C=C(\C)CCC=C(C)C)C2 (configuration not stated) | 0.5 |
| CC(C)=CCC/C(C)=C/C(Cc1ccc(OC(F)(F)F)cc1)NCCNC1C2CC3CC(C2)CC1C3 (configuration not stated) | 5.2 |
| COC12CC3CC(C1)C(NCCNC/C=C(\C)CCC=C(C)C)C(C3)C2 (configuration not stated) | 1.7 |
| CC(C)=CCC/C(C)=C/CNCCNC1C2CC3CC1CC(F)(C3)C2 (configuration not stated) | 0.6 |
| CC(C)=CCC/C(C)=C/C(Cc1ccc(F)cc1)NCCNC1C2CC3CC(C2)CC1C3 (configuration not stated) | 3 |
| CC(C)=CCC/C(C)=C/C(Cc1ccccc1)NCCNC1C2CC3CC(C2)CC1C3 (configuration not stated) | 1 |
| CC(C)=CCC/C(C)=C/CNCCNC1C2CC3CC(C2)CC1(O)C3 (configuration not stated) | 0.6 |
| CC(C)=CCC/C(C)=C/CNCCNC1C2CC3CC(C2)CC1(F)C3 (configuration not stated) | 0.3 |
| CC(C)=CCC/C(C)=C/CNCCNC1C2CC3CC(C2)CC1C3.Cl.Cl (configuration not stated) | 0.6 |

Data provenance: ChEMBL document CHEMBL1155983
